pKi: −log10 of the molar value.
Assembled from different publications: pKi for Serine/threonine-protein kinase pim-3 (Homo sapiens).
Class T: pKi at least 10. Class F: pKi below 10.

compound | assigned.category
Cc1cncc(-c2cc3c(cn2)cnn3-c2ccc(C)c(N3CCC[C@H](N)C3)n2)n1 | T
Cc1cncc(-c2cc3c(cn2)cnn3-c2cccc(N3CC[C@@H](N)C3)n2)n1 | F
Cn1ncc(NC(=O)c2nc(-c3c(F)cccc3F)sc2N)c1OCC1CCNCC1 | F
N[C@@H]1CCCN(c2cccc(-n3ncc4cnc(-c5cncs5)cc43)n2)C1 | F
Cc1cncc(-c2cc3c(cn2)cnn3-c2cnc(O)c(N3CCC[C@H](N)C3)n2)n1 | F
Cn1ncc(NC(=O)c2nc(-c3ccccc3F)cnc2N)c1N1CCC[C@@H](N)CC1 | F
Cn1cc(-c2cc3c(cn2)cnn3-c2cccc(C3(O)CCCNCC3)n2)cn1 (centres unmarked) | F
CN(C)C(=O)c1ccc(F)c(-c2nc(C(=O)Nc3cnccc3N3CCC[C@H](N)C3)cs2)c1 | F
Cc1cncc(-c2cc3c(cn2)cnn3-c2cccc(N3CCC4(CCNCC4)C3)n2)n1 | F
CCOc1ccc(F)c(-c2nc(C(=O)Nc3cnccc3N3CCC[C@H](N)C3)c(N)s2)c1F | T
Cn1ncc(NC(=O)c2nc(-c3ccccc3)ccc2N)c1N1CCC(N)CC1 | F
N#Cc1cncc(-c2cc3c(cn2)cnn3-c2cccc(N3CCNCC3)n2)n1 | F
